Source: patent US5439944A

- assayRemarks: Organ distribution 14 days after infusion (Table V)
- Assay type: in vivo, rats
- cond: 14 days after infusion of 40 cc/Kg
measure: Spleen (g/100 g)
Could you give me the number in g/100 g? Just the number is fine.

{"columns": ["compound", "Spleen (g/100 g)"],
 "data": [
  ["CCCCCCCCCCCCCCCCOC(COCCCCCCCCCCCCCC)COP(=O)([O-])OCC[N+](C)(C)C (centres unmarked) [Cpd 1k]", 2.09],
  ["CCCCCCCCCCCCCCCCOCC(COP(=O)([O-])OCC[N+](C)(C)C)OCCCCCCCCCCCCCC (centres unmarked) [Cpd 1e]", 1.55],
  ["CCCCCCCCCCCCCCCCCCOC(COCCCCCCCCCCCCCC)COP(=O)([O-])OCC[N+](C)(C)C (centres unmarked) [Cpd 1g]", 1.49],
  ["CCCCCCCCCCCCCCCCCCOCC(COP(=O)([O-])OCC[N+](C)(C)C)OCCCCCCCCCCCCCCCC (centres unmarked) [Cpd 1j]", 1.66]
]}

Next item in the queue.
Lab book: Spleen of CCCCCCCC/C=C\CCCCCCCCOCC(COP(=O)([O-])OCC[N+](C)(C)C)OCCCCCCCC/C=C\CCCCCCCC (centres unmarked) [Cpd 1i, 1,2-Dioleylglycerophosphoryl choline] noted as 2.56
